Test: Solubility of the compound
Assay type: physicochemical
Quantity Name: solubility

Below: 5 compounds and their reported solubility.
• C=CC(=O)Nc1cccc(Nc2cc3c(N4CCCC4)nc(Nc4ccccc4)nc3cn2)n1 = Insoluble
• C=CC(=O)Nc1cccc(Nc2cc3c(N4CCCC4)nc(OCC4CCCCC4)nc3cn2)n1 = Insoluble
• C=CC(=O)Nc1cccc(Nc2cc3c(N4CCCC4)nc(OC4CCOCC4)nc3cn2)n1 = Insoluble
• C=CC(=O)Nc1cccc(Nc2cc3c(N4CCCC4)nc(Nc4cccc(F)c4)nc3cn2)n1 = Insoluble
• C=CC(=O)N[C@@H]1CCCN(c2nc(Nc3ccccc3)nc3cnc(Nc4ccc(N5CCN(C)CC5)cn4)cc23)C1 = Soluble

Would you kindly share the measured solubility for `C=CC(=O)N[C@H]1CCN(c2nc(Nc3ccccc3)nc3cnc(Nc4ccc(N5CCN(C)CC5)cn4)cc23)C1` ? Soluble

Would you kindly share the measured solubility for `C=CC(=O)Nc1cccc(Nc2cc3c(N4CCCC4)nc(OCc4ccc(F)cc4)nc3cn2)n1` ? Insoluble

Would you kindly share the measured solubility for `C=CC(=O)N[C@@H]1CCN(c2nc(Nc3ccccc3)nc3cnc(Nc4ccc(N5CCN(C)CC5)cn4)cc23)C1` ? Soluble

Would you kindly share the measured solubility for `C=CC(=O)N[C@H]1CCCN(c2nc(Nc3ccccc3)nc3cnc(Nc4ccc(N5CCN(C)CC5)cn4)cc23)C1` ? Soluble
